System: mice
run description: In vivo acute (14-day) oral toxicity study
cond: 14 days after single dose, compounds 250 mg/kg oral, doxorubicin 15 mg/kg I.P
readout kind: S.AST

For orientation, consider the following solved cases.
- compound: "CC(=O)Nc1ccc(C(=O)C=C2C(=O)Nc3ccc(S(=O)(=O)N4CCCCC4)cc32)cc1"
  readout kind: "S.AST"
  meas value: "35.18 ± 0.47 ^^ U/L"
- compound: "Cc1ccc(C(=O)/C=C2\\C(=O)Nc3ccc(S(=O)(=O)N4CCCCC4)cc32)cc1"
  readout kind: "S.AST"
  meas value: "36.51 ± 0.15 ^^ U/L"
- compound: "COc1cccc2c1C(=O)c1c(O)c3c(c(O)c1C2=O)C[C@@](O)(C(=O)CO)C[C@@H]3O[C@H]1C[C@H](N)[C@H](O)[C@H](C)O1 [Doxorubicin, reference compound]"
  readout kind: "S.AST"
  meas value: "46.93 ± 0.30 *^,# U/L"
- compound: "O=C1Nc2ccc(S(=O)(=O)N3CCCCC3)cc2/C1=C/C(=O)c1ccc(O)cc1"
  readout kind: "S.AST"
  meas value: "38.72 ± 1.37 ^#,^ U/L"
- compound: "Cc1ccc(C(=O)CC2(O)C(=O)Nc3ccc(S(=O)(=O)N4CCCCC4)cc32)cc1 (stereo not shown)"
  readout kind: "S.AST"
  meas value: "36.78 ± 0.33 ^^ U/L"
- compound: "CCOC(=O)/C(C#N)=C1\\C(=O)Nc2ccc(S(=O)(=O)N3CCCCC3)cc21"
  readout kind: "S.AST"
  meas value: "37.11 ± 0.35 ^^ U/L"

# S.AST lookup, item `CC(=O)Nc1cccc(C(=O)C=C2C(=O)Nc3ccc(S(=O)(=O)N4CCCCC4)cc32)c1`
37.35 ± 1.47 ^^ U/L

###

Test system: mice
run description: In vivo acute (14-day) oral toxicity study
cond: 14 days after single dose, compounds 250 mg/kg oral, doxorubicin 15 mg/kg I.P
readout kind: S.D.Bilirubin

- molecule: "O=C1Nc2ccc(S(=O)(=O)N3CCCCC3)cc2/C1=C/C(=O)c1ccc(O)cc1 [Compound 4d]"
  readout kind: "S.D.Bilirubin"
  meas value: "0.18 ± 0.004 ^^ mg/dL"
- molecule: "COc1cccc2c1C(=O)c1c(O)c3c(c(O)c1C2=O)C[C@@](O)(C(=O)CO)C[C@@H]3O[C@H]1C[C@H](N)[C@H](O)[C@H](C)O1 [Doxorubicin, reference compound]"
  readout kind: "S.D.Bilirubin"
  meas value: "0.36 ± 0.026 *^,# mg/dL"
- molecule: "CC(=O)Nc1cccc(C(=O)C=C2C(=O)Nc3ccc(S(=O)(=O)N4CCCCC4)cc32)c1 [Compound 4c]"
  readout kind: "S.D.Bilirubin"
  meas value: "0.16 ± 0.007 ^^ mg/dL"
- molecule: "CC(=O)Nc1ccc(C(=O)C=C2C(=O)Nc3ccc(S(=O)(=O)N4CCCCC4)cc32)cc1 [Compound 4b]"
  readout kind: "S.D.Bilirubin"
  meas value: "0.17 ± 0.001 ^^ mg/dL"
- molecule: "Cc1ccc(C(=O)/C=C2\\C(=O)Nc3ccc(S(=O)(=O)N4CCCCC4)cc32)cc1 [Compound 4a]"
  readout kind: "S.D.Bilirubin"
  meas value: "0.17 ± 0.004 ^^ mg/dL"

# S.D.Bilirubin lookup, item Cc1ccc(C(=O)CC2(O)C(=O)Nc3ccc(S(=O)(=O)N4CCCCC4)cc32)cc1 (stereo not shown) [Compound 3a]
0.16 ± 0.002 ^^ mg/dL

# S.D.Bilirubin lookup, item CCOC(=O)/C(C#N)=C1\C(=O)Nc2ccc(S(=O)(=O)N3CCCCC3)cc21 [Compound 2a]
0.16 ± 0.003 ^^ mg/dL

Cited source: paper PMC8945686
